# TESTED_SYSTEM: T1, 4H2931-AA
# T1 chain: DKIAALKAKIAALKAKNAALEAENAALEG
# ASSAY_DETAILS: two-hybrid library CCmax;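 also: natural log of median RNA to DNA barcode read ratio; higher means stronger binding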
# EXPERIMENTAL_SETUP: mean of both orientations
RECORDED_METRIC: interaction score

• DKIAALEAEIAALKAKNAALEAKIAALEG [4H2165-AA] = -1.58
• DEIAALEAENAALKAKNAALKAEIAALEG [4H249-AA] = -1.53
• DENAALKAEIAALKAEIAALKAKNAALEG [4H1615-AA] = -1.79
• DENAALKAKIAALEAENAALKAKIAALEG [4H1821-AA] = -1.77
• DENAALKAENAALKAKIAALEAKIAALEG [4H1765-AA] = -1.83
• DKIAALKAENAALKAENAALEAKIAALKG [4H2774-AA] = -1.98
• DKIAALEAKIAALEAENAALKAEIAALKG [4H2330-AA] = -1.63
